# binding signal per record follows
Molecular target: GST-Aq-NF-kB (Amphimedon queenslandica, UniProt A9Y5G7 2-389)
Sequence: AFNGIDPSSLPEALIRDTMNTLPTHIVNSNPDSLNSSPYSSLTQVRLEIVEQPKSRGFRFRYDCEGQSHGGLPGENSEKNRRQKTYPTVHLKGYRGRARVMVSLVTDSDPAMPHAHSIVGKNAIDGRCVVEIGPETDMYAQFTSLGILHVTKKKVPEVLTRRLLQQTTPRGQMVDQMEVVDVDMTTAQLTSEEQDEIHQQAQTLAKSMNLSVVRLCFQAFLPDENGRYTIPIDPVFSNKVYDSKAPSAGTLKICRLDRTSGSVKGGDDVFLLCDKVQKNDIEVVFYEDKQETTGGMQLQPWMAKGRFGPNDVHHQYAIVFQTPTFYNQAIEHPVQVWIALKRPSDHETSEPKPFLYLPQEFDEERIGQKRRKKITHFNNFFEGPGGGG
Assay: protein-binding microarray (PBM); PBM: ~300 nM protein, 6 mM HEPES pH 7.8, 80 mM KCl, 0.5 mM EDTA, 0.5 mM EGTA, 6% glycerol, 35 ng/ul poly-dIdC, 1% milk, 1 h, room temperature; high values mean tight binding
Settings: dsDNA, one strand shown
Give the value, in units of z-score, as a plain number.

Some sequences with recorded binding signal:
# sequence.data, system, binding signal, z-score
measured = [
    ("CCGATTAACATCAAAAGACCCCCTGATGTTAATCGGGTCTTGATTCGCTTGACGCTGCTG", "GST-Aq-NF-kB (Amphimedon queenslandica, UniProt A9Y5G7 2-389)", 6.25),
    ("CCGATTAACATCAGGCGTTTCCCTGATGTTAATCGGGTCTTGATTCGCTTGACGCTGCTG", "GST-Aq-NF-kB (Amphimedon queenslandica, UniProt A9Y5G7 2-389)", 4.39),
    ("CCGATTAACATCAGGGGAACACATGATGTTAATCGGGTCTTGATTCGCTTGACGCTGCTG", "GST-Aq-NF-kB (Amphimedon queenslandica, UniProt A9Y5G7 2-389)", 4.1),
    ("CCGATTAACATCAATCCCCACATTGATGTTAATCGGGTCTTGATTCGCTTGACGCTGCTG", "GST-Aq-NF-kB (Amphimedon queenslandica, UniProt A9Y5G7 2-389)", 2.58),
    ("CCGATTAACATCACGGAAATTCCTGATGTTAATCGGGTCTTGATTCGCTTGACGCTGCTG", "GST-Aq-NF-kB (Amphimedon queenslandica, UniProt A9Y5G7 2-389)", 4.88),
    ("CCGATTAACATCAGGGGATTATATGATGTTAATCGGGTCTTGATTCGCTTGACGCTGCTG", "GST-Aq-NF-kB (Amphimedon queenslandica, UniProt A9Y5G7 2-389)", 7.52),
    ("CCGATTAACATCATTCCGGGAAATGATGTTAATCGGGTCTTGATTCGCTTGACGCTGCTG", "GST-Aq-NF-kB (Amphimedon queenslandica, UniProt A9Y5G7 2-389)", 1.95),
    ("CCGATTAACATCAGGGGAGTCCATGATGTTAATCGGGTCTTGATTCGCTTGACGCTGCTG", "GST-Aq-NF-kB (Amphimedon queenslandica, UniProt A9Y5G7 2-389)", 4.34),
]

Pending sequence:
Prompt: Please report the measured binding signal for CCGATTAACATCAGGGGCTGTACTGATGTTAATCGGGTCTTGATTCGCTTGACGCTGCTG tested on GST-Aq-NF-kB (Amphimedon queenslandica, UniProt A9Y5G7 2-389).
Completion: 4.35

---

# binding signal per record follows
Target: GST-Aq-NF-kB (Amphimedon queenslandica, UniProt A9Y5G7 2-389)
Sequence: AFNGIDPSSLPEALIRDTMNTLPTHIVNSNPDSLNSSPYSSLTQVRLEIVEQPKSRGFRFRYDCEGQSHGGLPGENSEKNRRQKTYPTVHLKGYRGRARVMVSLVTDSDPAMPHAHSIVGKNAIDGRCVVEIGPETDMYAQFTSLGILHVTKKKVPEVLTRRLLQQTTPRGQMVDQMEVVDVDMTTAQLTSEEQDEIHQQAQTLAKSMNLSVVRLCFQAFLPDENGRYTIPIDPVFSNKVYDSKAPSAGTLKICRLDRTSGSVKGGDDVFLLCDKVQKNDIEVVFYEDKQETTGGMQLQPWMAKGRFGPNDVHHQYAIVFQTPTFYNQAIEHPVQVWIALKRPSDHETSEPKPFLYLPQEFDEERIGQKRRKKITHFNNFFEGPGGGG
Experiment: protein-binding microarray (PBM); PBM: ~300 nM protein, 6 mM HEPES pH 7.8, 80 mM KCl, 0.5 mM EDTA, 0.5 mM EGTA, 6% glycerol, 35 ng/ul poly-dIdC, 1% milk, 1 h, room temperature; high values mean tight binding
Details: dsDNA, one strand shown
Give the value, in units of z-score, as a plain number.

# sequence.data, binding signal, z-score
records = [
    ("CCGATTAACATCAACATCCCCCCTGATGTTAATCGGGTCTTGATTCGCTTGACGCTGCTG", 5.23),
    ("CCGATTAACATCAGGGGAAGGAATGATGTTAATCGGGTCTTGATTCGCTTGACGCTGCTG", 4.05),
    ("CCGATTAACATCAGGGGGATACCTGATGTTAATCGGGTCTTGATTCGCTTGACGCTGCTG", 8.7),
]

Prompt: Report measured binding signal; entry is CCGATTAACATCAGGGAACCCCCTGATGTTAATCGGGTCTTGATTCGCTTGACGCTGCTG
Completion: 11.1

Prompt: Report measured binding signal; entry is CCGATTAACATCAGGGGGAGTCATGATGTTAATCGGGTCTTGATTCGCTTGACGCTGCTG
Completion: 4.55

Prompt: Report measured binding signal; entry is CCGATTAACATCAATGCACCCCCTGATGTTAATCGGGTCTTGATTCGCTTGACGCTGCTG
Completion: 3.4

Prompt: Report measured binding signal; entry is CCGATTAACATCACAGATTCCCCTGATGTTAATCGGGTCTTGATTCGCTTGACGCTGCTG
Completion: 5.96

Prompt: Report measured binding signal; entry is CCGATTAACATCAGGGGAAAGAATGATGTTAATCGGGTCTTGATTCGCTTGACGCTGCTG
Completion: 4.87

Prompt: Report measured binding signal; entry is CCGATTAACATCAAAAAAACCCTTGATGTTAATCGGGTCTTGATTCGCTTGACGCTGCTG
Completion: 6.78

Prompt: Report measured binding signal; entry is CCGATTAACATCAAAAAATCCCGTGATGTTAATCGGGTCTTGATTCGCTTGACGCTGCTG
Completion: 6.71

Prompt: Report measured binding signal; entry is CCGATTAACATCACGGGGGGAAATGATGTTAATCGGGTCTTGATTCGCTTGACGCTGCTG
Completion: 5.52

Prompt: Report measured binding signal; entry is CCGATTAACATCAATCCCCCCCGTGATGTTAATCGGGTCTTGATTCGCTTGACGCTGCTG
Completion: 5.33

---

Biological target: GST-Nv-NF-kB (Ser allele) (Nematostella vectensis, UniProt A7UNT2 2-411)
Sequence: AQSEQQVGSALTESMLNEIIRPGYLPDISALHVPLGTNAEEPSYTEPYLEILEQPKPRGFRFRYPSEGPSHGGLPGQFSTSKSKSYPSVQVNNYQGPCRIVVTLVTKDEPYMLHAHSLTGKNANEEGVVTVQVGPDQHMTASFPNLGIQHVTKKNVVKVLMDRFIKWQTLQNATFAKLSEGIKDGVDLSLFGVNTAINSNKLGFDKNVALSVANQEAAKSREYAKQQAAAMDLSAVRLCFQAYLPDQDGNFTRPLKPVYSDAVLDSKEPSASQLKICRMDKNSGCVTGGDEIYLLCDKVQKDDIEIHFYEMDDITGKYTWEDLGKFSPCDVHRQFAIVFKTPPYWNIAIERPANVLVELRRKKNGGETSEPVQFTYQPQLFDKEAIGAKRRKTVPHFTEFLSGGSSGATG
Test: protein-binding microarray (PBM); PBM: ~300 nM protein, 6 mM HEPES pH 7.8, 80 mM KCl, 0.5 mM EDTA, 0.5 mM EGTA, 6% glycerol, 35 ng/ul poly-dIdC, 1% milk, 1 h, room temperature; Ap Aiptasia and Nv Nematostella (sea anemones) / Co Capsaspora / Aq Amphimedon (sponge) / Dm Drosophila / Hu human; RHD is the Rel homology domain; high values mean tight binding
Details: dsDNA, one strand shown
value.type: binding signal
Give the number first and the unit second.

Prompt: Report measured binding signal; entry is CCGATTAACATCAATTATCCCCCTGATGTTAATCGGGTCTTGATTCGCTTGACGCTGCTG
Completion: 6.6 z-score

Prompt: Report measured binding signal; entry is CCGATTAACATCAGGGAAGTACCTGATGTTAATCGGGTCTTGATTCGCTTGACGCTGCTG
Completion: 8.68 z-score

Prompt: Report measured binding signal; entry is CCGATTAACATCAAGATTCCCCTTGATGTTAATCGGGTCTTGATTCGCTTGACGCTGCTG
Completion: 10.8 z-score

Prompt: Report measured binding signal; entry is CCGATTAACATCAGGGGAATCAATGATGTTAATCGGGTCTTGATTCGCTTGACGCTGCTG
Completion: 8.04 z-score
